assay: yeast display, Sf9 membrane polyspecificity reagent, FACS + sequencing; frameworks hold sequencing errors
property: polyreactivity (PSR sort gate)

Some sequences with known polyreactivity (PSR sort gate) results, for comparison:
- itemSequence: "QVQLVESGGGLVQAGGSLRLSCAASGFTFHVYAMGWSRQAPGKERELVAAISTGDDTTFYADSVKGRLTISRDNAKNTVYLQMNSLKPEDTAVYYCAAAYGTPYGGYDYWGQGTQVTVSS"
  polyreactivity (PSR sort gate): "low polyreactivity"
- itemSequence: "QVQLLESGGGLVQAGGSLRLSCAASGSTFQRYVMGWYRQAPGKERELVATITKSGGSTYYADSVKGRFTISRDIAKNTVYLQMNSLKPEDTAVYNCAAYLQWAFRGYYHWGQGTQVTVTS"
  polyreactivity (PSR sort gate): "high polyreactivity"
- itemSequence: "QVQLVESGGGLVQAGGSLRLSCAASGITFVKNAMGWYRQAPGKERELVARIRIGGSTSYADSVKGRFTISRDNAKNTVYLQMISLKPEDTAVYYCARYAGRLSYRYEYWGQGTQVTVSS"
  polyreactivity (PSR sort gate): "high polyreactivity"
- itemSequence: "QVQLVESGGGLVQAGGSLRLSSAASGSILYYNAMGWYRQAPGKERELVAAITSYGGDTYYADSVKGRFTISRDNAKNTVYLQMNSLKPEDSAVYYCAASSHFRPWAYYDDDYDHWGQGTQVTVSS"
  polyreactivity (PSR sort gate): "low polyreactivity"

We now examine a further sequence.
Measured polyreactivity (PSR sort gate), QVQLVESGGVLVQAGGSLRLSCAASGSIFGVYTMGWYRQAPGKERELVAAISGSGGSTYYADSVKGRFTISRDNAMNTVYLQMNSLKPEDTAVYYCATRFPKIPPYDSWGQGTQVTVSS : low polyreactivity

###

assay: yeast display, Sf9 membrane polyspecificity reagent, FACS + sequencing; frameworks hold sequencing errors
property: polyreactivity (PSR sort gate)

- itemSequence: "QVQLVESGGGLVQAGGSLRLSCAASGSTLPYYAMGWYRQAPGKERELVAAITSSGGDTYYADSVKGRFTISRDNAKNTVYFQMNSLKPEDTAVYYCAKSYSARSTVRKLFYFAYDYWGQGTQVTVSS"
  property: "polyreactivity (PSR sort gate)"
  observedValue: "low polyreactivity"
- itemSequence: "QVQLVESGGGLVQAGGSLRLSCAASGIFFLYGMGWYIQAPGKQRELVAVISTRDTTDYADSVKGRFTISRDKSKNTVNIQMNSLKPEDTAVYFCAATARSRSYSWSKLNYWGQGTQVTLSS"
  property: "polyreactivity (PSR sort gate)"
  observedValue: "low polyreactivity"

###

test: yeast display, Sf9 membrane polyspecificity reagent, FACS + sequencing; frameworks hold sequencing errors
property: polyreactivity (PSR sort gate)

- itemSequence: "QVQIVESGGGLVQAGGSLRLSCAASGTFTYYAMGWYRQAPGKERELVAAITWRGGNTYYADSVKGRFTISRDNAKNTVYLQKNSLKPEDTEVYYCAASLWPDYEYDYWGQGTQVTVSS"
  polyreactivity (PSR sort gate): "low polyreactivity"
- itemSequence: "QVQLVESGGGLVQAGGSLRLSCAASGFTFRPNAMGWYRPAPAKERELVAAISGSGGSTYYADSVKGRFTISRDNAKNTVYLQMNSLKPEDTAVYYFAADSYYDGDYWGQGTQVTVSS"
  polyreactivity (PSR sort gate): "low polyreactivity"
- itemSequence: "QVQLVESGGGLVQAGGSLRLSCAASGGIFFPNAMGWYRQAPGKERELGAAISWSAGSTYYADSVKGRFTISRDNAKNTVYLQMNSLKPEDTAVYYCAAAGSNYTVWYGYYYWGQGTQVTVSS"
  polyreactivity (PSR sort gate): "low polyreactivity"
- itemSequence: "QVQLVESGGGLVQAGGSLRLSCAASGRIFTNNAMGWYRQAPGKERELVAAISRSGGRTYYADSVKGRFTISRDNAKNTVYLQMNSLKPEDTAVYYCAAVHLYYGYNSPFTMDYWGQGTQVTVSS"
  polyreactivity (PSR sort gate): "high polyreactivity"
- itemSequence: "QVQLVESGGGLVQAGGSIRLSCAASGFTFTRYTMGWYRQAPGKERELVARITRSGGSTYYADSVKGRFTISRDNAKNTVYLQMNSLKPEDTAVYDCAAGYVVATRYDYWGQGTQVTLSS"
  polyreactivity (PSR sort gate): "high polyreactivity"
- itemSequence: "QVQLVESGGGLVQAGGSLRLSCAASGFISPSYAMGWYRQAPGKERELVAAIRSSDGSTYYADSVKGRFTISRDNAKNTVYLQMNSLKPEDTAVYYCAAGGSYYRDDYWGQGTQVTVSS"
  polyreactivity (PSR sort gate): "low polyreactivity"
- itemSequence: "QVQLVESGGGLVQAGGSLRLSCAASGSTFYYYAMGWYRQAPGKERELVAAITNVTSTYYADSVKGRFTISRDNEKNTVYLMMNSLKPEDTAVYYCAAPDHCSEVTYDYWGQGTQVCVSS"
  polyreactivity (PSR sort gate): "low polyreactivity"
- itemSequence: "QVQLVESGGGLVQAGGSLRLSCAASGITFSRYAMGWYRQAPGKERELVAAISKRGGRTYYADSVKGRFTISRDNAKKTDYLQMNSLKPEDTAVYYCATDYYVSTDYNYWGQGTQVTVSS"
  polyreactivity (PSR sort gate): "high polyreactivity"
- itemSequence: "QVQLVESGGGLVQAGGSLRLSCAASGSIYVPNDMGWYRQAPGKEREFVAAITESDGSTYYADSVKGRFTISRDNAKNTVYLQMNSLKPEDTAVYYCATDSTGVTIVHFDYWGQGTQVTVSS"
  polyreactivity (PSR sort gate): "low polyreactivity"
- itemSequence: "QVQLVESGGGLVQAGGSLRLSCAASGSIFRVYAMGWYRQAPGKERELVAAISWGRGTTYYADSVKGRFTISRDNAKNTVYLQMTSLKPEDTAVYYCAAGGVGAYDYWGQGTQVTVSS"
  polyreactivity (PSR sort gate): "high polyreactivity"

Measured polyreactivity (PSR sort gate), QDQLVESGGGLVQAGGTLRLSCDASGSTFFRNAMGWYRQPPGKEREMVADISASGGSTYYADSVKGRFTISRDNAKNTVYLQMNSLKPEDNADYYCNALYIYFYNYLTMDYWGQGSQVTVSS : low polyreactivity

Measured polyreactivity (PSR sort gate), QVQLVESGGGLVQAGGSLRLSCAASGSIFIGYAMGWYRQAPGKERELVAAITSGGSTYADSVKGRFTISRDNAKNTVYLQMNSLKPEDTAVYYCAAPRTYYSELTSPYDYWGQGTQVTVSS : low polyreactivity

Measured polyreactivity (PSR sort gate), QVKLVESAGGLVQAGGSHRLSCAASARIFRGNTRGWYRQAPGKEREVVARITWNGGTTNYADSVKGRFTISRDYAKNTVSLQMNSLKPVDTAVYYCAKGSLRQITGILSWYYYWRQGTQVTVSS : high polyreactivity

Measured polyreactivity (PSR sort gate), QVQLVESGGGLVQAGGSLRLSCAASGSTFTWYAMGWYRQAPGKERELVAAISGSGGRTFYADSVKGRFTISRDNAKNTVYLQMNSLKPEDTAVYYCNAVRVSIPYIYTMDYWGQGTQVTVSS : high polyreactivity

Measured polyreactivity (PSR sort gate), QVQLVESGGGLVQAGGSLRLSCAASGSISSNAMGWYRQAPGKERELVAAISGSVGSTYYADSVKGRFTISRDNAKNTVYLQMNSLKREDTAVYYCAADAEAGRYVYGASSELGYDYWGQGTQVTVSS : low polyreactivity

Measured polyreactivity (PSR sort gate), QVQLVESGGGLVPAGGSLRLSCAASGRIITINAIGWYRKAPGKERELVAAISNSGGRTYADSVKGRFTISRDNAKNTVYLQMNSLKPEDTAVYYCAKRYRFHFWGQGTQVTVSS : low polyreactivity

Measured polyreactivity (PSR sort gate), QVQLVESGGGLVQAGGSLRLSCAASGRTSVWYTMGWYRQAPGKEREFVASITGSGTYYADSVKGRFTISRDNAKNTVYLQMNSLKPEDTAVYYCAKRGYGYWGQGTQVTVSS : high polyreactivity

Measured polyreactivity (PSR sort gate), QVQLVESGGGLVQAGGSLRLSCAASGRNFDYYTMGWYRQAPGKERELVARIRRSAGTTYYADSVKGRFTISRDNAKNPVYCQMNSLIPEDTAVYYCNVVPYFKYGYWGQGTQVTGSS : low polyreactivity

Measured polyreactivity (PSR sort gate), QVQLRESGCGLVQAGGNLRLSCAASGNIFDADIMGWYGQAPGKERELVASITEGGSTNYADSVRCRFTISRDNAKNTVYLQMISLKPEDTAVYYCTAIAYPDIPTYFDHDSDYFYWGQGTQVTVSS : high polyreactivity

Measured polyreactivity (PSR sort gate), QVQLVESGGGLVQAGGSLRLSCAASGSIFEGNGMGWYRQAPGKERELVASITRSGGSTYYADSVKGRFTISRDNAKNTVYLQMNSLKPEDTAVYYCAVSRDSYGGKGSVLYDYWGQGTQVTVSS : low polyreactivity

Measured polyreactivity (PSR sort gate), HVQQQESGGGLEQAGGSLRLSCAASGNISYSRNMGWYRQAPGKERELVAAIDRGAITYYADSVKGRFTISRDNAKNTVYLQIYSLKPEDTAVYYCAAVYHDRWDHRYWGQGTQVTVSR : high polyreactivity
